- assay-remarks: CaMKII Cell-Based Activity: CaMKII activity in neonatal rat ventricular myocytes (NRVM) was measured by monitoring the phosphorylation level of phospholamban using high-content imaging. NRVMs were plated in a clear bottom 384-well plate in medium supplemented with 10% fetal bovine serum (FBS) and incubated at 37° C., 5% CO2 overnight. The medium was changed to a serum-free medium and compounds were dosed to the cells. The cells were incubated at 37° C., 5% CO2 for 4 hours and were then treated with 100 nM ATX-II (Alomone Labs) to activate CaMKII. 10 minutes after the addition of ATX-II, the cells were fixed with 4% formaldehyde followed by permeabilization with 0.1% triton X100. The fixed cells were stained with an anti-phospho-phospholamban primary antibody (Santa Cruz Biotechnology) and an Alexa488-labeled anti-rabbit IgG secondary antibody (Life Technologies Corporation) as well as Hoechst 33342 (Life Technologies Corporation). The cells were imaged using an ArrayScan VTI (Cellomics) and analyzed for cells containing a positive fluorescent signal at 485 nm, reported as % responder. The % responders were plotted against the compound concentration to determine the compounds EC50.
recorded-metric: EC50 (nM)

I. CCN(CC)[C@@H](C)CNC(=O)c1cc(-c2cnn3ccc(-c4cccs4)nc23)nc(N2CCC(O)CC2)c1
II. O=C(NCC1CCCCN1)c1ccnc(-c2cnn3ccc(-c4ccccc4)nc23)c1 (stereo not drawn)
III. CCN(CC)[C@@H](C)CNC(=O)c1cc(-c2cnn3ccc(-c4cccs4)nc23)nc(N2CC(NS(=O)(=O)C3CC3)C2)c1
IV. COc1cc(C(=O)N2CCCC[C@H]2CN)cc(-c2cnn3ccc(-c4ccccc4)nc23)n1
List from greatest to least EC50. Write the labels in rank order as requested. II, IV, I, III
(II: 955 nM, IV: 288 nM, I: 46.6 nM, III: 28.1 nM)

P. CCCN[C@@H](C)CNC(=O)c1ccnc(-c2cnn3ccc(-c4cccs4)nc23)c1
Q. CC[C@@H](CNC(=O)c1cc(-c2cnn3ccc(-c4cccs4)nc23)nc(N2CC[C@H]2C(=O)NC)c1)N(CC)CC (single isomer, unassigned)
Looking only at measured EC50, which entry is lower, P or Q ? Your answer should be the label attached to the chosen record. Q
(Q: 37.8 nM, P: 65.2 nM)

1. CCN(CC)[C@@H](C)CNC(=O)c1cc(-c2cnn3ccc(-c4cccs4)nc23)nc(N2CCN(C(C)=O)CC2)c1
2. CCN(CC)[C@@H](C)CNC(=O)c1cccc(-c2cnn3ccc(-c4cccs4)nc23)n1
Returns: the argument ( 1 or 2 ) having the larger EC50. Write the label of whichever entry you select. 2
(2: 103 nM, 1: 43.6 nM)

1. CCN(CC)C(C)CNC(=O)c1ccnc(-c2cnn3ccc(-c4cccs4)nc23)c1 (stereo not drawn)
2. CCN[C@@H](C)CNC(=O)c1cc(Cl)nc(-c2cnn3ccc(-c4ccccc4)nc23)c1
Recorded EC50 values differ for 1 and 2 ; which one is higher? Mark your answer with the label of the selected entry. 1
(1: 35.4 nM, 2: 13.8 nM)

====

- assay-remarks: CaMKII Cell-Based Activity: CaMKII activity in neonatal rat ventricular myocytes (NRVM) was measured by monitoring the phosphorylation level of phospholamban using high-content imaging. NRVMs were plated in a clear bottom 384-well plate in medium supplemented with 10% fetal bovine serum (FBS) and incubated at 37° C., 5% CO2 overnight. The medium was changed to a serum-free medium and compounds were dosed to the cells. The cells were incubated at 37° C., 5% CO2 for 4 hours and were then treated with 100 nM ATX-II (Alomone Labs) to activate CaMKII. 10 minutes after the addition of ATX-II, the cells were fixed with 4% formaldehyde followed by permeabilization with 0.1% triton X100. The fixed cells were stained with an anti-phospho-phospholamban primary antibody (Santa Cruz Biotechnology) and an Alexa488-labeled anti-rabbit IgG secondary antibody (Life Technologies Corporation) as well as Hoechst 33342 (Life Technologies Corporation). The cells were imaged using an ArrayScan VTI (Cellomics) and analyzed for cells containing a positive fluorescent signal at 485 nm, reported as % responder. The % responders were plotted against the compound concentration to determine the compounds EC50.
recorded-metric: EC50 (nM)

CCc1cc(C(=O)NC[C@H](C)N(CC)CC)cc(-c2cnn3ccc(-c4cccs4)nc23)n1    59.7
CCN(CC)[C@@H](C)CNC(=O)c1cc(-c2cnn3ccc(-c4cccs4)nc23)nc(N2CC[C@H]2C(=O)NC2CC2)c1    28
CCN(CC)[C@@H](C)CNC(=O)c1cc(-c2cnn3ccc(-c4cccs4)nc23)nc(N2CC(CO)(CO)C2)c1    107

A. C[C@@H](CNC(=O)c1ccnc(-c2cnn3ccc(-c4cccs4)nc23)c1)NCCO
B. CCN(CC)[C@@H](C)CNC(=O)c1cc(-c2cnn3ccc(-c4cccs4)nc23)nc(N2CC(NS(=O)(=O)C(C)C)C2)c1
// pick min by EC50: A , B Identify your selection by its label. B
(B: 31.5 nM, A: 301 nM)
